ASSAY_EXPLANATION: Solubility of tetrahydrate Form S3 in different solvents
Format: physicochemical
CONDITION_SUMMARY: solvent H2O/MeOH (1:1)
MEASUREMENT_KIND: solubility
Enter the number, and then the unit.

Data request: What does the data say about its solubility? Entry: CC(C)[C@H]1C(=O)N[C@@H](CCCN=C(N)N)C(=O)NCC(=O)N[C@@H](CC(=O)O)C(=O)N[C@H](Cc2ccccc2)C(=O)N1C [crystalline form S3, cyclo-(Arg-Gly-Asp-DPhe-NMe-Val)]
Data returned: 12.8 mg/mL

====

ASSAY_EXPLANATION: Solubility of tetrahydrate Form S3 in different solvents
Format: physicochemical
CONDITION_SUMMARY: solvent H2O/EtOH (1:1)
MEASUREMENT_KIND: solubility (mg/mL)
Write the answer as a number in mg/mL, unit excluded.

Data request: What does the data say about its solubility? Entry: CC(C)[C@H]1C(=O)N[C@@H](CCCN=C(N)N)C(=O)NCC(=O)N[C@@H](CC(=O)O)C(=O)N[C@H](Cc2ccccc2)C(=O)N1C [crystalline form S3, cyclo-(Arg-Gly-Asp-DPhe-NMe-Val)]
Data returned: 13

Source: patent US8765684B2
